Reference source: patent US20240132910A1

assay: Viability of transfected HEK293 cells (Trypan Blue exclusion), AAV9 production in Ambr15; assay type: cell-based; settings: human, Ambr15, 10 minute complexation time, FIG. 10H; read-out: average cell viability
Ends that are not written are not given here.
measurement label: viability

Prompt: Find the measured viability of KKALLALALHHLAHLALHLALALKKA [LAH4] and report it.
Completion: ~72.5%

----------
Experiment: Viability of transfected HEK293 cells (Trypan Blue exclusion), AAV9 production in Ambr15
Type: cell-based
Conditions: human, Ambr15, 60 minute complexation time, FIG. 10H; read-out: average cell viability
Description: The cell viabilities were quantified using an automated cell counter and Trypan Blue exclusion. In Ambr15 minibioreactors (15 mL volume), AAV9 capsids were produced in HEK293 cells transfected with plasmids for producing AAV9 capsids and providing an AAV genome vector containing an GFP expression cassette using different complexation volumes of the LAH4 peptide. […] The titers were determined using ddPCR and GFP intensity was measured by attune flow cytometer.
Ends that are not written are not given here.
measurement label: viability

Prompt: Find the measured viability of KKALLALALHHLAHLALHLALALKKA [LAH4] and report it.
Completion: > 75%
